Target: Gonadotropin-releasing hormone receptor (Homo sapiens, UniProt P30968)
Sequence (P30968 whole entry): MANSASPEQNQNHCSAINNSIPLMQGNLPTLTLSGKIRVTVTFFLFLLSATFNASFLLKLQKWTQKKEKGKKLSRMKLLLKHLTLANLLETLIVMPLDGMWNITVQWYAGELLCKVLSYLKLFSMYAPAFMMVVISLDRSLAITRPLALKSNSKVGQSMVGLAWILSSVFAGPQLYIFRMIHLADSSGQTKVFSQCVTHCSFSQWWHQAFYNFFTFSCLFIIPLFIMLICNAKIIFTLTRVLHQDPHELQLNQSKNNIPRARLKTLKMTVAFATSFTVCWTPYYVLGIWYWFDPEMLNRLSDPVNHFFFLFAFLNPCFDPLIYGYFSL
Test: Antagonist activity at human recombinant GnRHR expressed in CHOK1 cells assessed as reduction in luminescence signal by luciferase reporter gene assay
pIC50: −log10 of the molar value.
reported-metric: pIC50

Worked set:
Which measured pIC50 value corresponds to CCNC(=O)Nc1ccc(-c2nc3n(Cc4c(F)cccc4F)cc(C(=O)OCC)c(=O)n3c2CN(CC(=O)NCC(=O)NCC#Cc2ccccc2)Cc2ccccc2)cc1 ?
6.34

Request: CCNC(=O)Nc1ccc(-c2nc3n(Cc4c(F)cccc4F)cc(C(=O)OCC)c(=O)n3c2CN(CC(=O)N2CCC(C(=O)NCC#Cc3ccccc3)CC2)Cc2ccccc2)cc1
6.34

Request: CCNC(=O)Nc1ccc(-c2nc3n(Cc4c(F)cccc4F)cc(C(=O)OCC)c(=O)n3c2CN(CC(=O)NCCCC(=O)NCC#Cc2ccccc2)Cc2ccccc2)cc1
6.17

Request: CCNC(=O)Nc1ccc(-c2nc3n(Cc4c(F)cccc4F)cc(C(=O)OCC)c(=O)n3c2CN(CC(=O)N2CCC[C@H]2C(=O)NCC#Cc2ccccc2)Cc2ccccc2)cc1
6.25

Request: CCNC(=O)Nc1ccc(-c2nc3n(Cc4c(F)cccc4F)cc(C(=O)OCC)c(=O)n3c2CN(CC(=O)N[C@H](C(=O)NCC#Cc2ccccc2)C(C)C)Cc2ccccc2)cc1
6.28

P = CCNC(=O)Nc1ccc(-c2nc3n(Cc4c(F)cccc4F)cc(C(=O)OCC)c(=O)n3c2CN(CC(=O)NCCCCCC(=O)NCC#Cc2ccccc2)Cc2ccccc2)cc1
Q = CCNC(=O)Nc1ccc(-c2nc3n(Cc4c(F)cccc4F)cc(C(=O)OCC)c(=O)n3c2CN(CC(=O)N[C@@H](C)C(=O)NCC#Cc2ccccc2)Cc2ccccc2)cc1
// compare: P vs Q , metric pIC50, want the smaller Answer format: the label of the selected item.
Q
(Q: 5.96, P: 6.36)

====

Target: Gonadotropin-releasing hormone receptor (Homo sapiens) (UniProt P30968)
Assay: Antagonist activity at human recombinant GnRHR expressed in CHOK1 cells assessed as reduction in luminescence signal at 3 uM by luciferase reporter gene assay
Format: functional, cell-based
Conditions: CHO-K1
reported-metric: Efficacy (%)

Worked set:
Which measured Efficacy value corresponds to CCNC(=O)Nc1ccc(-c2nc3n(Cc4c(F)cccc4F)cc(C(=O)OCC)c(=O)n3c2CN(CC(=O)NCCCC(=O)NCC#Cc2ccc(C#CCNC(=O)CCCNC(=O)CN(Cc3ccccc3)Cc3c(-c4ccc(NC(=O)NCC)cc4)nc4n(Cc5c(F)cccc5F)cc(C(=O)OCC)c(=O)n34)cc2)Cc2ccccc2)cc1 ?
68

Request: CCNC(=O)Nc1ccc(-c2nc3n(Cc4c(F)cccc4F)cc(C(=O)OCC)c(=O)n3c2CN(CC(=O)N[C@H](C(=O)NCC#Cc2cccc(C#CCNC(=O)[C@@H](NC(=O)CN(Cc3ccccc3)Cc3c(-c4ccc(NC(=O)NCC)cc4)nc4n(Cc5c(F)cccc5F)cc(C(=O)OCC)c(=O)n34)C(C)C)c2)C(C)C)Cc2ccccc2)cc1
28

I = CCNC(=O)Nc1ccc(-c2nc3n(Cc4c(F)cccc4F)cc(C(=O)OCC)c(=O)n3c2CN(CC(=O)N[C@@H](C)C(=O)NCC#Cc2ccccc2)Cc2ccccc2)cc1
II = CCNC(=O)Nc1ccc(-c2nc3n(Cc4c(F)cccc4F)cc(C(=O)OCC)c(=O)n3c2CN(CC(=O)NCC(=O)NCC#Cc2cccc(C#CCNC(=O)CNC(=O)CN(Cc3ccccc3)Cc3c(-c4ccc(NC(=O)NCC)cc4)nc4n(Cc5c(F)cccc5F)cc(C(=O)OCC)c(=O)n34)c2)Cc2ccccc2)cc1
// compare: I vs II , metric Efficacy, want the smaller Answer format: the label of the selected item.
II

====

Target: Gonadotropin-releasing hormone receptor (Homo sapiens) (UniProt P30968)
Sequence (whole entry): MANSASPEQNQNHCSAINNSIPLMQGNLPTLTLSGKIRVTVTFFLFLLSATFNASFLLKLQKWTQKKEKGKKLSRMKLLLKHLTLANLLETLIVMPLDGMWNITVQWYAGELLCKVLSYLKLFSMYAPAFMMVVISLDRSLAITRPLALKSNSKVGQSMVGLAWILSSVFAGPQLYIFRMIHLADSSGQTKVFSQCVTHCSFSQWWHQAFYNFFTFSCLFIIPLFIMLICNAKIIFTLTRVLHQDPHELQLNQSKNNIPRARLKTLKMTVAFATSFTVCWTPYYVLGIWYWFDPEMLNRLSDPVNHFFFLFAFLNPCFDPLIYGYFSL
Test: Antagonist activity at human recombinant GnRHR expressed in CHOK1 cells assessed as reduction in luminescence signal at 3 uM by luciferase reporter gene assay
Type: functional, cell-based
Conditions: CHO-K1
reported-metric: Efficacy (%)

Which measured Efficacy value corresponds to CCNC(=O)Nc1ccc(-c2nc3n(Cc4c(F)cccc4F)cc(C(=O)OCC)c(=O)n3c2CN(CC(=O)N[C@@H](C)C(=O)NCC#Cc2cccc(C#CCNC(=O)[C@H](C)NC(=O)CN(Cc3ccccc3)Cc3c(-c4ccc(NC(=O)NCC)cc4)nc4n(Cc5c(F)cccc5F)cc(C(=O)OCC)c(=O)n34)c2)Cc2ccccc2)cc1 ?
18

Request: CCNC(=O)Nc1ccc(-c2nc3n(Cc4c(F)cccc4F)cc(C(=O)OCC)c(=O)n3c2CN(CC(=O)N[C@@H](C)C(=O)NCC#Cc2ccc(C#CCNC(=O)[C@H](C)NC(=O)CN(Cc3ccccc3)Cc3c(-c4ccc(NC(=O)NCC)cc4)nc4n(Cc5c(F)cccc5F)cc(C(=O)OCC)c(=O)n34)cc2)Cc2ccccc2)cc1
42

A = CCNC(=O)Nc1ccc(-c2nc3n(Cc4c(F)cccc4F)cc(C(=O)OCC)c(=O)n3c2CN(CC(=O)N[C@H](C(=O)NCC#Cc2ccccc2)C(C)C)Cc2ccccc2)cc1
B = CCNC(=O)Nc1ccc(-c2nc3n(Cc4c(F)cccc4F)cc(C(=O)OCC)c(=O)n3c2CN(CC(=O)NCCCCCC(=O)NCC#Cc2ccccc2)Cc2ccccc2)cc1
Form field 'greater Efficacy' accepts A or B ; which applies? Answer format: the label of the selected item.
B
(B: 97%, A: 64%)

====

Efficacy values by entry
Target: Gonadotropin-releasing hormone receptor (Homo sapiens)
Assay: Antagonist activity at human recombinant GnRHR expressed in CHOK1 cells assessed as reduction in luminescence signal at 10 uM by luciferase reporter gene assay
Type: functional, cell-based
Details: CHO-K1
Provide the reading as a plain figure in %.

Which measured Efficacy value corresponds to CCNC(=O)Nc1ccc(-c2nc3n(Cc4c(F)cccc4F)cc(C(=O)OCC)c(=O)n3c2CN(CC(=O)N[C@H](C(=O)NCC#Cc2cccc(C#CCNC(=O)[C@@H](NC(=O)CN(Cc3ccccc3)Cc3c(-c4ccc(NC(=O)NCC)cc4)nc4n(Cc5c(F)cccc5F)cc(C(=O)OCC)c(=O)n34)C(C)C)c2)C(C)C)Cc2ccccc2)cc1 ?
43

Let us move to another entry and its Efficacy.
Which measured Efficacy value corresponds to CCNC(=O)Nc1ccc(-c2nc3n(Cc4c(F)cccc4F)cc(C(=O)OCC)c(=O)n3c2CN(CC(=O)N2CCC[C@H]2C(=O)NCC#Cc2cccc(C#CCNC(=O)[C@@H]3CCCN3C(=O)CN(Cc3ccccc3)Cc3c(-c4ccc(NC(=O)NCC)cc4)nc4n(Cc5c(F)cccc5F)cc(C(=O)OCC)c(=O)n34)c2)Cc2ccccc2)cc1 ?
67

====

Target: Gonadotropin-releasing hormone receptor (Homo sapiens) (UniProt P30968)
Sequence (whole entry): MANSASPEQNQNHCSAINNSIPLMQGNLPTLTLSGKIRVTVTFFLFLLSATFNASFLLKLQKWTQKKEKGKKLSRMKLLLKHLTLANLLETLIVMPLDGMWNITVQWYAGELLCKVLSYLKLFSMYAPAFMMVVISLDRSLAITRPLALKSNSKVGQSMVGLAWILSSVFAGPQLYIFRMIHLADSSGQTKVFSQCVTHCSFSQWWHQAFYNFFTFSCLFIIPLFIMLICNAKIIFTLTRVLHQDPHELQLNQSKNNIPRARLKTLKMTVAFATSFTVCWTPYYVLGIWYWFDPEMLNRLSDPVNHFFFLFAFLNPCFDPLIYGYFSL
Assay: Antagonist activity at human recombinant GnRHR expressed in CHOK1 cells assessed as reduction in luminescence signal at 10 uM by luciferase reporter gene assay
Format: functional, cell-based
Conditions: CHO-K1
reported-metric: Efficacy (%)
Provide the reading as a plain figure in %.

Worked set:
Which measured Efficacy value corresponds to CCNC(=O)Nc1ccc(-c2nc3n(Cc4c(F)cccc4F)cc(C(=O)OCC)c(=O)n3c2CN(CC(=O)N2CCC(C(=O)NCC#Cc3ccc(C#CCNC(=O)C4CCN(C(=O)CN(Cc5ccccc5)Cc5c(-c6ccc(NC(=O)NCC)cc6)nc6n(Cc7c(F)cccc7F)cc(C(=O)OCC)c(=O)n56)CC4)cc3)CC2)Cc2ccccc2)cc1 ?
48

Request: CCNC(=O)Nc1ccc(-c2nc3n(Cc4c(F)cccc4F)cc(C(=O)OCC)c(=O)n3c2CN(CC(=O)NCCCCCC(=O)NCC#Cc2ccc(C#CCNC(=O)CCCCCNC(=O)CN(Cc3ccccc3)Cc3c(-c4ccc(NC(=O)NCC)cc4)nc4n(Cc5c(F)cccc5F)cc(C(=O)OCC)c(=O)n34)cc2)Cc2ccccc2)cc1
67

Request: CCNC(=O)Nc1ccc(-c2nc3n(Cc4c(F)cccc4F)cc(C(=O)OCC)c(=O)n3c2CN(CC(=O)NCCCCCC(=O)NCC#Cc2cccc(C#CCNC(=O)CCCCCNC(=O)CN(Cc3ccccc3)Cc3c(-c4ccc(NC(=O)NCC)cc4)nc4n(Cc5c(F)cccc5F)cc(C(=O)OCC)c(=O)n34)c2)Cc2ccccc2)cc1
58

Let us move to another entry and its Efficacy.
Which measured Efficacy value corresponds to CCNC(=O)Nc1ccc(-c2nc3n(Cc4c(F)cccc4F)cc(C(=O)OCC)c(=O)n3c2CN(CC(=O)NCCCCCC(=O)NCC#Cc2ccccc2)Cc2ccccc2)cc1 ?
99
